target: Alpha-1A adrenergic receptor (Homo sapiens, UniProt P35348); assay: Activation of recombinant human adrenergic,alpha-1A receptor expressed in rat-1 fibroblasts determined via calcium mobilization through Gq coupled PLC pathway
Sequence (P35348 whole entry): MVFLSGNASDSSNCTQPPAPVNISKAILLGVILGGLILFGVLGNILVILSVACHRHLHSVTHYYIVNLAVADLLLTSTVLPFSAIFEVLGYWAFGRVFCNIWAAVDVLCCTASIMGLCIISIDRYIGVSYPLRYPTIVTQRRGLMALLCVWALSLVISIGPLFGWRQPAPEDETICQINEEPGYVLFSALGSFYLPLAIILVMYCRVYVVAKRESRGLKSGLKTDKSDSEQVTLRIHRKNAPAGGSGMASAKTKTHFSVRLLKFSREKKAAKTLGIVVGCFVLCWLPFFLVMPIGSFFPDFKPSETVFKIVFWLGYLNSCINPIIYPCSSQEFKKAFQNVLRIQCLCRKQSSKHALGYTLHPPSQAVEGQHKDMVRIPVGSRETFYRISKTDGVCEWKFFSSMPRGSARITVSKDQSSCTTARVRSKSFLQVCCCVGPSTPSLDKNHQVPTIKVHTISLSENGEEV
Sorting guide: entries reporting EC50 beneath 5 nM go in the 1 (yes) pile, the rest go in the 0 (no) pile.

>>> class_label("c1ccc(-c2cnccn2)c(OCC2=NCCN2)c1")
"1 (yes)"
>>> class_label("c1ccc(-c2ccccc2OCC2=NCCN2)nc1")
"0 (no)"
>>> class_label("c1ccc(-c2ccccc2OCC2=NCCN2)cc1")
"1 (yes)"
>>> class_label("c1c[nH]c(-c2ccccc2OCC2=NCCN2)c1")
"1 (yes)"
>>> class_label("CS(=O)(=O)Nc1ccc(F)c([C@@H](O)CN)c1")
"0 (no)"
>>> class_label("c1ccc(-c2ccncn2)c(OCC2=NCCN2)c1")
"0 (no)"
>>> class_label("c1coc(-c2ccccc2OCC2=NCCN2)c1")
"1 (yes)"
>>> class_label("c1csc(-c2ccccc2OCC2=NCCN2)c1")
"1 (yes)"
>>> class_label("c1cncc(-c2ccccc2OCC2=NCCN2)c1")
"1 (yes)"
>>> class_label("Cc1ccnc(-c2ccccc2OCC2=NCCN2)c1")
"0 (no)"
>>> class_label("c1cnc(-c2ccccc2OCC2=NCCN2)nc1")
"0 (no)"
>>> class_label("Cc1ccoc1-c1ccccc1OCC1=NCCN1")
"1 (yes)"
>>> class_label("Cc1ccc(-c2ccccc2OCC2=NCCN2)s1")
"0 (no)"
>>> class_label("Cn1nccc1-c1ccccc1OCC1=NCCN1")
"0 (no)"
>>> class_label("c1ccc(-c2ccsc2)c(OCC2=NCCN2)c1")
"1 (yes)"
>>> class_label("c1ccc(-c2ccccc2NCC2=NCCN2)cc1")
"0 (no)"
>>> class_label("c1ccc(-c2ncc[nH]2)c(OCC2=NCCN2)c1")
"0 (no)"
>>> class_label("Cc1cnsc1-c1ccccc1OCC1=NCCN1")
"0 (no)"
>>> class_label("Cc1cc(-c2ccccc2OCC2=NCCN2)sn1")
"0 (no)"
>>> class_label("CCN(CC)C(=O)c1ccccc1OCC1=NCCN1")
"0 (no)"
>>> class_label("Cc1cccc(-c2ccccc2OCC2=NCCN2)n1")
"0 (no)"
>>> class_label("c1ccc(-c2ccoc2)c(OCC2=NCCN2)c1")
"1 (yes)"
>>> class_label("Cc1csc(-c2ccccc2OCC2=NCCN2)n1")
"0 (no)"
>>> class_label("c1ccc(-c2nccs2)c(OCC2=NCCN2)c1")
"1 (yes)"
>>> class_label("c1ccc(-c2ccncc2)c(OCC2=NCCN2)c1")
"0 (no)"

----------
target: Alpha-1D adrenergic receptor (Homo sapiens); assay: Ability to activate human alpha-1D receptor expressed in rat-1 fibroblasts as calcium mobilization through Gq coupled PLC pathway relative to phenylephrine response; type: functional
Please use 1.0 whenever Max is not below 90%, and 0.0 whenever it is.

>>> class_label("c1csc(-c2ccccc2OCC2=NCCN2)c1")
1.0
>>> class_label("c1cncc(-c2ccccc2OCC2=NCCN2)c1")
0.0
>>> class_label("c1ccc(-c2ccccc2NCC2=NCCN2)cc1")
0.0
>>> class_label("c1ccc(-c2ccns2)c(OCC2=NCCN2)c1")
0.0
>>> class_label("c1c[nH]c(-c2ccccc2OCC2=NCCN2)c1")
1.0
>>> class_label("c1ccc(-c2ccsc2)c(OCC2=NCCN2)c1")
1.0
>>> class_label("c1ccc(-c2nccs2)c(OCC2=NCCN2)c1")
1.0
>>> class_label("c1ccc(-c2ccoc2)c(OCC2=NCCN2)c1")
1.0
